Provide the reported GI50 of each item.
Tested on: KM12
test_name: NCI tumour cell line growth inhibition, 48 h
The source made the active and inactive calls. No stated cut-off is given here; in the data, active = GI50 up to about 1.1 µM and inactive = higher.

Record `CNC(=O)O/N=C1\N(C)CN(c2ccccc2)C12CCN(CCCC(=O)c1ccc(F)cc1)CC2` has KM12 GI50 equal to 27.7 µM (inactive)

GI50 of COc1cc(/C=C/C2=NN(c3cccc(S(=O)(=O)O)c3)C3(C2)SCC(=O)N3c2nc3ccccc3s2)cc(OC)c1OC (centres undefined) , assay on KM12, is 38.5 µM (inactive)

Entry `O=C(c1cccc2ccccc12)N1CCC(C2CCN(C(=O)c3cccc4ccccc34)CC2)CC1` under KM12 had GI50 of > 100 µM (inactive)

Bench note, KM12: `O=C(O)CCCN/C(=C1\C(=O)C(=O)N(c2ccccc2)C1=O)c1ccccc1` , GI50 reads > 100 µM (inactive)

Assay KM12, sample `CC1(C)C(=NNC(=O)C[N+](C)(C)C)C(C)(C)C1=NNC(=O)C[N+](C)(C)C` , GI50 read: > 100 µM (inactive)

Entry `Cc1cc(C)nc(NS(=O)(=O)c2ccc(NC(=O)c3cccn4c(=O)c5ccccc5nc34)cc2)n1` : GI50 on KM12 = 41.1 µM (inactive)

Record `CCOC(=O)/C(C)=C(/O)C(=O)OCC` has KM12 GI50 equal to > 100 µM (inactive)

Per the reported KM12 data, CCN1CCCC(NCc2c3ccccc3c(CNC3CCCN(CC)C3)c3ccccc23)C1 (centres undefined) has GI50 of 5.45 µM (inactive)

GI50 of `CC(=O)Oc1ccc2cc(Oc3ccccc3)c(=O)oc2c1` , assay on KM12, is > 100 µM (inactive)

---

Exercise: state measured GI50 for each of the compounds provided.
Tested on: A549
test_name: NCI tumour cell line growth inhibition, 48 h
Active and inactive are the calls of the source. No stated cut-off is given here; in the data, active = GI50 up to about 1.1 µM and inactive = higher.

For this compound ( `COC(=O)c1c(C)c2c(c(C)c1O)OC(=O)c1c(C)cc(O)c(C=O)c1O2` ), measured GI50 is > 100 µM (inactive)

Lab book: GI50 of O=C(CC(c1ccccc1)N1CCCCC1)c1ccccc1 (stereo unspecified) noted as 20.5 µM (inactive)

Lab note: measured GI50 of `CC(=O)c1c2c(cc3c1CCC3)CCC2` was > 100 µM (inactive)

For `CCOC(=O)c1nc2cc(C(F)(F)F)ccc2nc1Oc1ccc(C#N)cc1` the compound record lists GI50 as > 100 µM (inactive)

So for `Cc1cccc2ns[s+]c12` , the logged GI50 turned out to be > 100 µM (inactive)

Item: `Clc1ccc(SCCCCCCCCCCSc2ccc(Cl)cc2)cc1` | GI50: > 73.8 µM (inactive)

---

System: CAKI-1
test_name: NCI tumour cell line growth inhibition, 48 h
Active and inactive are the calls of the source. No stated cut-off is given here; in the data, active = GI50 up to about 1.1 µM and inactive = higher.
Hi there, I'd appreciate the recorded GI50 for every entry that follows.

Record Cc1cc(O)cc2c1O[C@@]1(C)CCC3[C@@]4(C)CC[C@H](O)C(C)(C)C4CC[C@@]3(C)[C@H]1C2 (stereo not given in full) / CAKI-1, GI50 recorded as 6.81 µM (inactive)

# GI50 measured on CAKI-1 for item `CSc1ccccc1P(CCP(c1ccccc1SC)c1ccccc1SC)c1ccccc1SC` = > 84.5 µM (inactive)

// molecule CC(NS(=O)(=O)c1ccc([N+](=O)[O-])cc1)C(=O)O (stereo not given) , assay CAKI-1, GI50 value: > 100 µM (inactive)

Summary: `COc1ccc2[nH]c(C(O)(Cc3cccnc3)Cc3cccnc3)cc2c1` , CAKI-1, GI50 = > 100 µM (inactive)

Bench note, CAKI-1: entry `CCOC(=O)/C(C)=C(/O)C(=O)OCC` , its GI50 = > 100 µM (inactive)

---

Exercise: for every item that follows, state its recorded GI50.
System: SK-MEL-5
test_name: NCI tumour cell line growth inhibition, 48 h
Where a name gives a salt, the structure may show the parent alone. The source made the active and inactive calls. Cut-off read from the data, not from the text of the source: active = GI50 up to about 1.1 µM and inactive = higher.

The reported GI50 of the compound COc1cc(C(c2cc3c(cc2O)OCO3)N2CCCCC2)cc(OC)c1OC (configuration not stated) was 19.1 µM (inactive)

In plain terms, `Cc1ccc2nc(Cl)c(/C=N/N3C(=O)/C(=C/Cc4ccco4)N=C3c3ccccc3)cc2c1` has a documented GI50 of 56.4 µM (inactive)

Recorded result, `COC(=O)CC(=O)OC` , GI50: > 100 µM (inactive)

What the record says about `O=C(Cn1c2c(c3ccccc31)CCCC2)N1CCOCC1` : GI50 is > 100 µM (inactive)

Form: compound = `CC(=O)Nc1ccc(-c2nnc(SCC(=O)Nc3cccc(Cl)c3)o2)cc1` ; GI50 = 13.9 µM (inactive)

According to the records, this compound CC1=NN(C(=O)CC(=O)Nc2ccccc2)C(=O)C1/N=N/c1ccc(C(=O)O)cc1 (configuration not stated) displays GI50 of > 100 µM (inactive)

# compound `CC(=O)NC1=C(Nc2ccc(C)cc2)C(=O)c2ccccc2C1=O` ; its GI50 = 10.2 µM (inactive)

Per the record, CCOC(=O)C(NC(=O)CC)(Nc1ccc(S(=O)(=O)Nc2nc(C)cc(C)n2)cc1)C(F)(F)F (configuration not stated) has GI50 of > 100 µM (inactive)

Recorded GI50 (compound CC(=O)O[C@H]1CCC2[C@@H]3CCC4Cc5nc6c(nc5C[C@]4(C)C3CC[C@@]21C)CC1CC[C@@H]2C(CC[C@@]3(C)C2CC[C@@H]3C(C)CCCC(C)C)[C@@]1(C)C6 (some centres not stated) ): > 100 µM (inactive)

Looking up `O=C(N[C@@H](c1ccccc1)[C@@H](O)C(=O)OCc1ccc([N+](=O)[O-])cc1)c1ccccc1` , I found its GI50 recorded as 75.9 µM (inactive)

The compound identified as `C=CC1(CC[C@]2(c3ccc(OC)c(OC)c3)C=[N+]([O-])O[C@H](O[C@@H]3CCCC[C@H]3C(C)(C)c3ccccc3)C2)OCC(C)(C)CO1` registered its GI50 at 14.7 µM (inactive)

Please fill in: GI50 reported for `NCCCc1ccc2oc3ccccc3c2c1` = 14.9 µM (inactive)

Short answer for `COc1ccc(C(=O)Nc2ccccc2)cc1[N+](=O)[O-]` : GI50 was 31.5 µM (inactive)

For this compound ( COc1cc(-c2coc3c(OC)c(OC4OC(COC5OC(C)C(O)C(O)C5O)C(O)C(O)C4O)c(OC)c(O)c3c2=O)cc(C)c1O (configuration not stated) ), measured GI50 is 12.6 µM (inactive)

Given item O=C1CC(O)C=C1Nc1ccc(Cl)cc1 (configuration not stated) , the value recorded as its GI50 is 30.5 µM (inactive)

For record `Nc1ccccc1.O=C(O)C(C(F)(F)F)C(F)(F)F` the listed GI50 is > 100 µM (inactive)

// GI50 lookup, compound = `O=C(c1ccccc1)C1S(=O)(=O)OCCOS1(=O)=O` , result: > 100 µM (inactive)

The value of GI50 measured for the compound `COc1cc(OC)c2c(O)c3c(cc2c1)CC(C)(C)CC3=O` turned out to be > 100 µM (inactive)

`Nc1ccc(Nc2cc(O)nc(O)n2)cc1` has a reported GI50 of > 100 µM (inactive)

Measured GI50, `C1=C[C@]2(CCC13OCCO3)COc1ccccc12` : 52 µM (inactive)

The compound listed as `CCOc1ncn(-c2ccc(NC(=S)NC34CC5CC(CC(C5)C3)C4)cc2)n1` shows GI50 equal to 58.5 µM (inactive)

Lab note: measured GI50 of `Cc1cc2ccccc2oc(=O)/c1=N\Nc1ccccc1` was 84.1 µM (inactive)

Short answer for CCOC(=O)C(C)c1nc2cc(N3CCOCC3)c(F)cc2[nH]c1=O (configuration not stated) : GI50 was > 100 µM (inactive)

Data point: `COc1cc(/C=C/c2ccc(OC)c(OC)c2)oc(=O)c1` ; GI50 = > 250 µM (inactive)

Reported GI50 for `C[N+](C)(C)CCCCCc1c2nc(c(CCCCC[N+](C)(C)C)c3ccc([nH]3)c(CCCCC[N+](C)(C)C)c3nc(c(CCCCC[N+](C)(C)C)c4ccc1[nH]4)C=C3)C=C2` was > 100 µM (inactive)

Summary for this compound, `NCCCN(CCCCN(CCCN)Cc1ccccc1)Cc1ccccc1` : GI50 is 57.8 µM (inactive)

The compound listed as c1ccc2c(c1)N=C(c1cccc3ccccc13)CC(c1cccc3ccccc13)S2 (configuration not stated) has a reported GI50 of 8.95 µM (inactive)

Record COc1cccc(N2C(Cl)C(=O)C2c2c[nH]c3ccccc23)c1 (configuration not stated) . Reported GI50: > 100 µM (inactive)

Entry `N#C/C(=C1\SCC(=O)N1c1ccccc1)c1nc2ccccc2[nH]1` — recorded GI50 = > 100 µM (inactive)

The reported value for N[C@@H](Cc1ccc(N(CCCl)CCCl)cc1)C(=O)O [MELPHALAN HYDROCHLORIDE] in terms of GI50 is 38.3 µM (inactive)

Recorded result, `COC(=O)c1c(C)c2c(c(C)c1O)OC(=O)c1c(C)cc(O)c(C=O)c1O2` , GI50: > 100 µM (inactive)

Measured GI50 of `CCc1cccc(NC(=O)c2cc(/C=C/c3ccccc3)nc(S)n2)c1` : > 100 µM (inactive)

Entry `NC(=S)N1N=C2c3ccccc3CC[C@@H]2[C@@H]1c1ccccc1` — recorded GI50 = 3.82 µM (inactive)

Recorded GI50 (compound `O=C1CSC(=S)N1c1ccco1` ): 43 µM (inactive)

get_value(item= `CCOC(=O)c1c(CN2CCNCC2)nc2ccc(Cl)cc2c1-c1ccccc1` , readout=GI50) returns 1.42 µM (inactive)

Per the record, CN(C)CCCN1CCc2c([nH]c3ccccc23)C1c1cccnc1 (configuration not stated) has GI50 of > 100 µM (inactive)

GI50 reported for this compound `Cc1ccc(NC(=O)CC/C(CC(=O)C(C)(C)C)=N\NC(=O)C[n+]2ccccc2)cc1C` : > 100 µM (inactive)

Record `CC(=O)Oc1ccc2cc(Oc3ccccc3)c(=O)oc2c1` . Reported GI50: 50.4 µM (inactive)

The reported value for `CCOc1ccc(NC(=O)C2=C(C)NC(C)=C(C(=O)Nc3ccc(OCC)cc3)C2c2ccc([N+](=O)[O-])cc2)cc1` in terms of GI50 is 15.3 µM (inactive)

Per the records, this compound ( `CCOC(=O)c1nc2cc(C(F)(F)F)ccc2nc1Oc1ccc(C#N)cc1` ) has GI50 equal to 92.5 µM (inactive)

response.value for `CNC(=O)O/N=C1\N(C)CN(c2ccccc2)C12CCN(CCCC(=O)c1ccc(F)cc1)CC2` (field: GI50) = 18.5 µM (inactive)

Kindly note the recorded GI50 for `COC(=O)/C=C/c1c(CC=C(C)C)ncn1C` , which is 22.1 µM (inactive)
